Source of measurements: patent US20250215029A1

# system-tested: Recombinant STAT6 protein (STAT6 (W123-T658)) (Homo sapiens)
# Construct: Recombinant STAT6 protein (STAT6 (W123-T658))
# Sequence (P42226 123-658): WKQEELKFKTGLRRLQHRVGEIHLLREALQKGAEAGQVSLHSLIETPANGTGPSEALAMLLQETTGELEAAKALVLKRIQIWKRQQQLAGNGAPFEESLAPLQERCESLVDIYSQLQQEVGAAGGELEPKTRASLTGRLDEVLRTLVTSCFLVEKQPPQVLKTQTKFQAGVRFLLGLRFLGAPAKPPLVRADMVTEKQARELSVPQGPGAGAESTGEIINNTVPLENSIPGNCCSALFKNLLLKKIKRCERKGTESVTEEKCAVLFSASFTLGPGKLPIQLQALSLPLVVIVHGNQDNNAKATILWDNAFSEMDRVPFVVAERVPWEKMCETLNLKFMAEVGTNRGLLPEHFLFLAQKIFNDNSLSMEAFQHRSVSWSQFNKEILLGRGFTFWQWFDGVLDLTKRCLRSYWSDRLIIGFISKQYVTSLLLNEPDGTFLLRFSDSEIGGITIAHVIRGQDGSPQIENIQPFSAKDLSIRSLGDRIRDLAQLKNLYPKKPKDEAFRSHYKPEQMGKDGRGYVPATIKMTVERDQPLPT
# measurement-notes: STAT6 Fluorescence Polarization (FP) Assay
# Format: binding
# condition-notes: STAT6 (W123-T658) 250 nM, probe 5-FAM-Ap[…]-NH2 2 nM, 45-minute incubation; read-out: STAT6 (FP assay IC50 class)
pIC50: −log10 of the molar value.
measured-property: pIC50

compound: O=C(N[C@H]1CCCC[C@H]2CC[C@@H](C(=O)N3C[C@@H](c4ccccc4)CC34CC4)N2C1=O)c1cc2cc(C(F)(F)P(=O)(O)O)ccc2s1 (single isomer, unassigned)
system-tested: Recombinant STAT6 protein (STAT6 (W123-T658)) (Homo sapiens)
result: ≥ 6.52

The following compounds each have a reported value; give each one's pIC50.
1. C/C1=C/[C@H]2CC[C@@H](C(=O)N3CC(c4cnccc4C)C3)N2C(=O)[C@@H](NC(=O)c2cc3cc(C(F)(F)P(=O)(O)O)ccc3s2)CC1
2. O=C(N[C@H]1CCC[C@H]2CC[C@@H](C(=O)N3CC(c4cnccn4)C3)N2C1=O)c1cc2cc(C(F)(F)P(=O)(O)O)ccc2s1
3. CN(Cc1cc(=O)[nH]c2ccccc12)C(=O)[C@@H]1CC[C@@H]2CCCC[C@H](NC(=O)c3cc4cc(C(F)(F)P(=O)(O)O)ccc4s3)C(=O)N21
4. Cn1ccc(C2CCN(C(=O)[C@@H]3CC[C@@H]4CCCC[C@H](NC(=O)c5ccc6ccc(C(F)P(=O)(O)O)cc6c5)C(=O)N43)C2)cc1=O (stereo partly drawn)

Result:
["5.52 to 6.52", "4.52 to 5.52", "5.52 to 6.52", "5.52 to 6.52"]

Request: So what pIC50 did O=C(N[C@H]1CCC[C@H]2CC[C@@H](C(=O)N3CCN(c4cccnc4)CC34CC4)N2C1=O)c1cc2cc(C(F)(F)P(=O)(O)O)ccc2s1 get with Recombinant STAT6 protein (STAT6 (W123-T658)) (Homo sapiens)?
Result: 5.52 to 6.52

###

# system-tested: Recombinant STAT3 protein (STAT3 (G127-I722)) (Homo sapiens, UniProt P40763)
# Construct: Recombinant STAT3 protein (STAT3 (G127-I722))
# Sequence (P40763 127-722): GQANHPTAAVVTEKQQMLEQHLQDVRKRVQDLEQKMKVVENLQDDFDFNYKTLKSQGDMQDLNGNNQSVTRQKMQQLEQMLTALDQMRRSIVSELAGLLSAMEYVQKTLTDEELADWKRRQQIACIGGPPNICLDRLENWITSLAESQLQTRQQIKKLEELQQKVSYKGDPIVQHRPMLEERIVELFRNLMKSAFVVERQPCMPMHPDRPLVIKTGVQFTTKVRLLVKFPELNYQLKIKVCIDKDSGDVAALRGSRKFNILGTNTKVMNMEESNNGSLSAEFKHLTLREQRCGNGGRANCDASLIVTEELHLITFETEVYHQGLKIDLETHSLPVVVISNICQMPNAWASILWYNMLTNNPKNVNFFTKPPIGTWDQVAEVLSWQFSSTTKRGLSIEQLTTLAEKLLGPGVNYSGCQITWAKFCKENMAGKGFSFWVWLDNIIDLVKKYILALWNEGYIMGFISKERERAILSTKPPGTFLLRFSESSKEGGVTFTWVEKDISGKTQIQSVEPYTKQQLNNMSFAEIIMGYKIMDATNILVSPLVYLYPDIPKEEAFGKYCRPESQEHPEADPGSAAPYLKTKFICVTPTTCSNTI
# measurement-notes: STAT3 Fluorescence Polarization (FP) Assay
# Assay type: binding
# condition-notes: STAT3 (G127-I722) 25 nM, probe 5-FAM-GpYLPQTV-NH2 2 nM, 45-minute incubation; read-out: STAT3 (FP assay IC50 class)
I'd appreciate it if you could supply IC50 values for the items below.

These solved cases illustrate the format of a correct answer.
compound: Cc1ccncc1C1CN(C(=O)[C@@H]2CC[C@@H]3CCC[C@H](NC(=O)c4cc5cc([C@@H](F)P(=O)(O)O)ccc5s4)C(=O)N32)C1 (single isomer, unassigned)
system-tested: Recombinant STAT3 protein (STAT3 (G127-I722)) (Homo sapiens, UniProt P40763)
result: < 100 nM
--
compound: CN(C)c1c(F)cncc1C1CN(C(=O)[C@@H]2CC[C@@H]3CCC[C@H](NC(=O)c4cc5cc([C@H](F)P(=O)(O)O)ccc5s4)C(=O)N32)C1 (single isomer, unassigned)
system-tested: Recombinant STAT3 protein (STAT3 (G127-I722)) (Homo sapiens, UniProt P40763)
result: < 100 nM
--
compound: CS(=O)(=O)CC1CN(C(=O)[C@@H]2CC[C@@H]3CCC[C@H](NC(=O)c4cc5cc(C(F)(F)P(=O)(O)O)ccc5s4)C(=O)N32)C1
system-tested: Recombinant STAT3 protein (STAT3 (G127-I722)) (Homo sapiens, UniProt P40763)
result: < 100 nM
--
compound: Cn1ccc(C2CN(C(=O)[C@@H]3CC[C@@H]4CCC[C@H](NC(=O)c5cc6cc([C@@H](F)P(=O)(O)O)ccc6s5)C(=O)N43)C2)cc1=O (single isomer, unassigned)
system-tested: Recombinant STAT3 protein (STAT3 (G127-I722)) (Homo sapiens, UniProt P40763)
result: 100 to 1000 nM
--
compound: O=C(NC1CCCCC2CCC(C(=O)N3CC(O)C(n4ccnn4)C3)N2C1=O)c1ccc2ccc(C(F)(F)P(=O)(O)O)cc2c1 (mixture of isomers)
system-tested: Recombinant STAT3 protein (STAT3 (G127-I722)) (Homo sapiens, UniProt P40763)
result: 1000 to 10000 nM

For every record below, what is its IC50?
1. COC[C@@H]1CCN1c1ncncc1C1CN(C(=O)[C@@H]2CC[C@@H]3CCC[C@H](NC(=O)c4cc5cc([C@H](F)P(=O)(O)O)ccc5s4)C(=O)N32)C1 (single isomer, unassigned)
2. C[C@@H]1[C@@H](c2cccnc2)CN1C(=O)[C@@H]1CC[C@@H]2CCC[C@H](NC(=O)c3cc4cc(C(F)P(=O)(O)O)ccc4s3)C(=O)N21 (stereo partly shown) [Compound 737]
3. O=C(N[C@H]1CCCC[C@H]2CC[C@@H](C(=O)N3CC(c4cnccc4-c4ccccc4)C3)N2C1=O)c1cc2cc(C(F)(F)P(=O)(O)O)ccc2s1
4. Cn1ccc(C2(F)CCN(C(=O)[C@@H]3CC[C@@H]4CCCC[C@H](NC(=O)c5ccc6ccc(C(F)P(=O)(O)O)cc6c5)C(=O)N43)C2)cc1=O (stereo partly shown)
5. Cn1ccc(C2CN(C(=O)[C@@H]3CC[C@@H]4CCCC[C@H](NC(=O)c5cc6cc(C(F)P(=O)(O)O)ccc6s5)C(=O)N43)C3(CC3)C2)cc1=O (stereo partly shown)

Result:
1: < 100 nM; 2: < 100 nM; 3: < 100 nM; 4: 1000 to 10000 nM; 5: 1000 to 10000 nM
